# Target or system: Phosphoethanolamine N-methyltransferase (Plasmodium falciparum, UniProt Q8IDQ9)
# Sequence (Q8IDQ9 whole entry): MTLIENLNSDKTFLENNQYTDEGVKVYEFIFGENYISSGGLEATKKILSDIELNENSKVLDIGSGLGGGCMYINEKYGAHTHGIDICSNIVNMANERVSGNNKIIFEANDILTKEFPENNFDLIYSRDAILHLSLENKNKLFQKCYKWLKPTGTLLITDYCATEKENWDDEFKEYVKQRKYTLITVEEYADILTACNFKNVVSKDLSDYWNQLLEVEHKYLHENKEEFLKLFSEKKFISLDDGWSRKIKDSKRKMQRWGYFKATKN
# Protocol notes: Inhibition of Plasmodium falciparum phosphoethanolamine methyltransferase using phospethanolamine as substrate by radiochemical assay in presence of S-adenosylmethionine
pIC50: −log10 of the molar value.

Compound: COc1cc(NC(C)CCCN)c2ncccc2c1 (configuration not stated)
Target or system: Phosphoethanolamine N-methyltransferase (Plasmodium falciparum, UniProt Q8IDQ9)
pIC50: 3.34

Compound: CCN(CC)CCCC(C)Nc1ccnc2cc(Cl)ccc12 (configuration not stated)
Target or system: Phosphoethanolamine N-methyltransferase (Plasmodium falciparum, UniProt Q8IDQ9)
pIC50: 3.26
